System: H3K27me3 mark in HeLa cells (EZH2)
Assay: H3K27me3 Alpha Hela Assay (AlphaLISA)
Assay type: cell-based
Conditions: HeLa cells, 72 hrs; read-out: EZH2 Cell H3K27me3 Alpha HeLa (EC50 K27me3)
Procedure: H3K27me3 Alpha Hela Assay (AlphaLISA). Ten different doses of each test compound (in a series of 3-fold dilutions) were plated in duplicate 384-well tissue culture treated plates (Catalog #6007680; Perkin Elmer, Waltham, Mass.). Hela cells grown in culture were trypsinized and counted using a Countess® cell counter (Catalog #C10281; Life Technologies, Grand Island, N.Y.). […] Data from both assays was analyzed using Genedata (Basel, Switzerland). […] Readout of DMSO wells were used to normalize the data. […]
ENDPOINT NAME: EC50

# example entries with known answers
COMPOUND: CSc1cc(C)[nH]c(=O)c1CNC(=O)c1c(C)n([C@H](C)C2CCC(N3CC(OC(C)(C)C)C3)CC2)c2ncccc12 (single isomer, unassigned) [112 (isomer 2)]
TESTED ON: H3K27me3 mark in HeLa cells (EZH2)
OBSERVED: 10 to 100 nM
--
COMPOUND: CSc1cc(C)[nH]c(=O)c1CNC(=O)c1c(C)n([C@H](C)C2CCC(O)CC2)c2cc(F)ccc12 (single isomer, unassigned) [44 (isomer 2)]
TESTED ON: H3K27me3 mark in HeLa cells (EZH2)
OBSERVED: < 10 nM
--
COMPOUND: COC1CN(C2CCC([C@@H](C)n3c(C)c(C(=O)NCc4c(SC)cc(C)[nH]c4=O)c4ccccc43)CC2)C1 (single isomer, unassigned) [4 (isomer 2)]
TESTED ON: H3K27me3 mark in HeLa cells (EZH2)
OBSERVED: 10 to 100 nM
--
COMPOUND: COC1(C)CN(C2CCC([C@@H](C)n3c(C)c(C(=O)NCc4c(SC)cc(C)[nH]c4=O)c4ccccc43)CC2)C1 (single isomer, unassigned) [90 (isomer 1)]
TESTED ON: H3K27me3 mark in HeLa cells (EZH2)
OBSERVED: 10 to 100 nM
--
COMPOUND: COC1CCC([C@@H](C)n2c(C)c(C(=O)NCc3c(SC)cc(C)[nH]c3=O)c3cncnc32)CC1 (single isomer, unassigned) [41 (isomer 2)]
TESTED ON: H3K27me3 mark in HeLa cells (EZH2)
OBSERVED: < 10 nM

Count: 6. Required value per item: EC50.
1. CSc1cc(C)[nH]c(=O)c1CNC(=O)c1c(C)n([C@@H](C)[C@H]2OC[C@H](N3CCC34COC4)CO2)c2ccccc12 (single isomer, unassigned; isomer 2) [151 (isomer 2)]
2. COC1CN(C2CCC([C@@H](C)n3c(C)c(C(=O)NCc4c(SC)cc(C)[nH]c4=O)c4cccnc43)CC2)C1 (single isomer, unassigned) [76 (isomer 2)]
3. CSc1cc(C)[nH]c(=O)c1CNC(=O)c1c(C)n([C@H](C)C2CCC(N3CC(OC(F)(F)F)C3)CC2)c2ccccc12 (single isomer, unassigned) [21 (isomer 2)]
4. COCCN(C)C1COC([C@@H](C)n2c(C)c(C(=O)NCc3c(SC)cc(C)[nH]c3=O)c3ccccc32)OC1 (single isomer, unassigned) [16 (isomer 1)]
5. CSc1cc(C)[nH]c(=O)c1CNC(=O)c1c(C)n([C@H](C)C2OCC(N3CC(F)(F)C3)CO2)c2ccccc12 (single isomer, unassigned) [85 (isomer 1)]
6. CSc1cc(C)[nH]c(=O)c1CNC(=O)c1c(C)n([C@H](C)C2OCC(N3CC(C)(C)C3)CO2)c2ccccc12 (single isomer, unassigned) [78 (isomer 2)]

Response given:
1: > 100 nM; 2: > 100 nM; 3: 10 to 100 nM; 4: < 10 nM; 5: 10 to 100 nM; 6: > 100 nM
